// provenance: ChEMBL document CHEMBL3045663

- System: Nephotettix cincticeps
- Assay Notes: Insecticidal activity against Nephotettix cincticeps (green rice leafhopper) in compound treated rice seedlings assessed as mortality at 500 ppm
- Assay type: functional
Reported Property: mortality at 500 ppm (%)

Compound | System | Reported Property | Numeric Value
c1ccc(C2=NC(c3ccccc3)CO2)cc1 (stereo unspecified) | Nephotettix cincticeps | mortality at 500 ppm | 0
Clc1ccccc1C1=NC(c2ccccc2)CO1 (stereo unspecified) | Nephotettix cincticeps | mortality at 500 ppm | 10
Cc1ccccc1C1=NC(c2ccccc2)CO1 (stereo unspecified) | Nephotettix cincticeps | mortality at 500 ppm | 0
CCCOc1cc(C(C)(C)C)ccc1C1COC(c2c(F)cccc2F)=N1 (stereo unspecified) | Nephotettix cincticeps | mortality at 500 ppm | 60
Fc1cccc(F)c1C1=NC(c2ccccc2)CS1 (stereo unspecified) | Nephotettix cincticeps | mortality at 500 ppm | 0
Fc1cccc(F)c1C1=NC(c2ccccc2Cl)CO1 (stereo unspecified) | Nephotettix cincticeps | mortality at 500 ppm | 85
Ic1ccccc1C1=NC(c2ccccc2)CO1 (stereo unspecified) | Nephotettix cincticeps | mortality at 500 ppm | 0
C[Si](C)(C)c1ccc(C2COC(c3c(F)cccc3F)=N2)cc1 (stereo unspecified) | Nephotettix cincticeps | mortality at 500 ppm | 60
CCCCc1ccc(C2COC(c3c(F)cccc3F)=N2)cc1 (stereo unspecified) | Nephotettix cincticeps | mortality at 500 ppm | 10
Fc1cccc(F)c1C1=NC(c2ccc(Br)cc2)CO1 (stereo unspecified) | Nephotettix cincticeps | mortality at 500 ppm | 10
Clc1cccc(C2=NC(c3ccccc3)CO2)c1 (stereo unspecified) | Nephotettix cincticeps | mortality at 500 ppm | 0
Cc1ccc(C2COC(c3c(F)cccc3F)=N2)c(C)c1 (stereo unspecified) | Nephotettix cincticeps | mortality at 500 ppm | 100
Fc1ccc(C2COC(c3c(F)cccc3F)=N2)cc1Cl (stereo unspecified) | Nephotettix cincticeps | mortality at 500 ppm | 10
CCCCCCCCc1ccc(C2COC(c3c(F)cccc3F)=N2)c(OC)c1 (stereo unspecified) | Nephotettix cincticeps | mortality at 500 ppm | 0
Cc1cccc(C2COC(c3c(F)cccc3F)=N2)c1 (stereo unspecified) | Nephotettix cincticeps | mortality at 500 ppm | 0
Fc1ccc(C2COC(c3c(F)cccc3F)=N2)cc1 (stereo unspecified) | Nephotettix cincticeps | mortality at 500 ppm | 10
CCCCCCc1ccc(C2COC(c3c(F)cccc3F)=N2)cc1F (stereo unspecified) | Nephotettix cincticeps | mortality at 500 ppm | 0
Fc1ccc(C2COC(c3c(F)cccc3F)=N2)c(F)c1 (stereo unspecified) | Nephotettix cincticeps | mortality at 500 ppm | 35
Clc1cccc(Cl)c1C1=NC(c2ccccc2)CO1 (stereo unspecified) | Nephotettix cincticeps | mortality at 500 ppm | 0
Fc1ccccc1C1=NC(c2ccccc2)CO1 (stereo unspecified) | Nephotettix cincticeps | mortality at 500 ppm | 10
CCCCCCCCCCc1ccc(C2COC(c3c(F)cccc3F)=N2)c(F)c1 (stereo unspecified) | Nephotettix cincticeps | mortality at 500 ppm | 0
Brc1ccccc1C1=NC(c2ccccc2)CO1 (stereo unspecified) | Nephotettix cincticeps | mortality at 500 ppm | 0
CSc1ccc(C2COC(c3c(F)cccc3F)=N2)cc1 (stereo unspecified) | Nephotettix cincticeps | mortality at 500 ppm | 0
CC1(c2ccccc2)COC(c2c(F)cccc2F)=N1 (stereo unspecified) | Nephotettix cincticeps | mortality at 500 ppm | 0
CCCCCCCc1ccc(C2COC(c3c(F)cccc3F)=N2)c(F)c1 (stereo unspecified) | Nephotettix cincticeps | mortality at 500 ppm | 0
Fc1cccc(F)c1C1=NC(c2ccccc2)CO1 (stereo unspecified) | Nephotettix cincticeps | mortality at 500 ppm | 35
